Quick reference: minimal effective dose of the listed items.
System: tumour necrosis factor-α (TNF-α)
assayText: Mouse Tumour Necrosis Factor Test (Test B), mouse endotoxin shock model, serum TNF-α by ELISA
Assay type: in vivo, BALB/c mice
studyConditions: Mus musculus; minimum effective oral dose giving significant reduction in serum TNF-α of ≥35%; dosed 2 h before LPS i.p.; ≤ = active at dose given but not tested at lower doses; read-out: MTNF:MED
The figure you give is taken to be in mg/kg; do not add the unit.

Q: Annotate the molecule c1ccc(CCCCN2CCC(CCn3ccnc3)CC2)cc1 with its measured minimal effective dose.
Result: 30

Q: Return the recorded minimal effective dose value; entry: Cc1nccn1CCC1CCN(CCCc2ccccc2)CC1
Result: 100

Q: Give the reported value of minimal effective dose for this record: CSc1ccc(CCCN2CCC(CCn3ccnc3)CC2)cc1
Result: 30

Q: Look up and state reported minimal effective dose for O=C(CN1CCC(CCn2ccnc2)CC1)Nc1ccc(C(F)(F)F)cc1
Result: 30

Q: Kindly indicate its recorded minimal effective dose. Item: Cc1nc2ccccc2n1CCC1CCN(CCCc2ccccc2)CC1
Result: 100
